Assignment: determine reported pKi for the given compounds.
# experimental-system: human vasopressin V1b receptor (Homo sapiens, UniProt P47901)
# Construct: expressed in transfected cells; host or cells: CHO-K1 (cell line hV1b-3H2_CHO), membrane preparation
# measurement-description: Vasopressin V1b receptor binding assay
# condition-set: membranes from CHO-K1 cells with stably expressed human V1b receptors, displacement of 1.5 nM 3H-AVP
pKi: −log10 of the molar value. Structures can show the parent of a compound that is named as a salt.

// worked examples, pKi included
{"compound": "COc1ccc(S(=O)(=O)N2C(=O)C(c3cc(CN(C)CCCN(C)C)ccc3OC)(N3CCC[C@H]3C(=O)N(C)C)c3cc(Cl)ccc32)c(OC)c1 (stereo partly drawn) [Example 30, trifluoroacetic acid salt]", "value-observed": "> 9.00"}
{"compound": "COc1ccc(S(=O)(=O)N2C(=O)C(c3cc(CN4CCOCC4)ccc3OC)(N3CCC[C@H]3C(=O)N(C)C)c3cc(Cl)ccc32)cc1 (stereo partly drawn) [Example 21, trifluoroacetic acid salt]", "value-observed": "> 9.00"}

Let us move to another entry and its pKi.
What value of measured pKi is listed for COc1cc(CN2CCNCC2)ccc1C1(N2CCC[C@H]2C(=O)N(C)C)C(=O)N(S(=O)(=O)c2ccc(C#N)cc2)c2ccc(Cl)cc21 (stereo partly drawn) [Example 99, trifluoroacetic acid salt] ?
> 9.00

---

# experimental-system: human vasopressin V1b receptor (Homo sapiens)
# Sequence (P47901 1-424): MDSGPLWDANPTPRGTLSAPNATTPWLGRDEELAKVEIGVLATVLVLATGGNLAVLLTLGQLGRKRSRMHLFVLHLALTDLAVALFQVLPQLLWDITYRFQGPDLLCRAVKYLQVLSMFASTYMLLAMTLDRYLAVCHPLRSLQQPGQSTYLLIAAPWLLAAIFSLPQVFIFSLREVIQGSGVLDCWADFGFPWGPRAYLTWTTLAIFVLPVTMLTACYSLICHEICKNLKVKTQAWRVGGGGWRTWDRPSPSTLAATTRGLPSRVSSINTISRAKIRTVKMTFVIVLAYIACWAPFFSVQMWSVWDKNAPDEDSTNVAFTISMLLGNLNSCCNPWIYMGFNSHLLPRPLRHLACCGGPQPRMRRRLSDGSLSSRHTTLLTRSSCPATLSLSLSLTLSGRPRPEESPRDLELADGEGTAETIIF
pKi: −log10 of the molar value. Counter-ions that a name gives are not always drawn.
Assignment: determine reported pKi for the given molecules.

{"molecule": "COCCN(C)Cc1ccc(OC)c(C2(N3CCC[C@H]3C(=O)N(C)C)C(=O)N(S(=O)(=O)c3ccc(OC)cc3OC)c3ccc(Cl)cc32)c1 (some centres unmarked) [Example 33, trifluoroacetic acid salt]", "value-observed": "> 9.00"}
{"molecule": "COc1ccc(S(=O)(=O)N2C(=O)C(c3cc(CN(C)CCN(C)C)ccc3OC)(N3CCC[C@H]3C(=O)N(C)C)c3cc(Cl)ccc32)c(OC)c1 (some centres unmarked) [Example 29, trifluoroacetic acid salt]", "value-observed": "> 9.00"}
{"molecule": "COc1ccc(S(=O)(=O)N2C(=O)C(c3cc(CN4CCCC4)ccc3OC)(N3CCC[C@H]3C(=O)N(C)C)c3cc(Cl)ccc32)cc1 (some centres unmarked) [Example 18, trifluoroacetic acid salt]", "value-observed": "> 9.00"}
{"molecule": "CCCNCc1ccc(C2(N3CCC[C@H]3C(=O)N(C)C)C(=O)N(S(=O)(=O)c3ccc(OC)cc3)c3ccc(Cl)cc32)c(OC)c1 (some centres unmarked) [Example 85, trifluoroacetic acid salt]", "value-observed": "> 9.00"}
{"molecule": "COc1ccc(S(=O)(=O)N2C(=O)C(c3cc(CN4CCN(C)CC4)ccc3OC)(N3CCC[C@H]3C(=O)N(C)C)c3cc(Cl)ccc32)cc1 (some centres unmarked) [Example 20, trifluoroacetic acid salt]", "value-observed": "> 9.00"}
{"molecule": "COc1ccc(S(=O)(=O)N2C(=O)C(c3ccc(CN4CCN(C)CC4)cc3OC)(N3CCC[C@H]3C(=O)N(C)C)c3cc(Cl)ccc32)cc1 (some centres unmarked) [Example 69, trifluoroacetic acid salt]", "value-observed": "> 9.00"}
{"molecule": "COc1cc(CN2CCN(C)CC2)ccc1C1(N2CCC[C@H]2C(=O)N(C)C)C(=O)N(S(=O)(=O)c2ccc(F)cc2)c2ccc(Cl)cc21 (some centres unmarked) [Example 74, trifluoroacetic acid salt]", "value-observed": "> 9.00"}
{"molecule": "CNCc1ccc(OC)c(C2(N3CCC[C@H]3C(=O)N(C)C)C(=O)N(S(=O)(=O)c3ccc(C#N)cc3)c3ccc(Cl)cc32)c1 (some centres unmarked) [Example 102, trifluoroacetic acid salt]", "value-observed": "8.00 to 9.00"}

Working through the 7 molecules below one at a time, give pKi for each.
1. COc1cc(CN2CCNCC2)ccc1C1(N2CCC[C@H]2C(=O)N(C)C)C(=O)N(S(=O)(=O)c2ccc(F)cc2)c2ccc(Cl)cc21 (some centres unmarked) [Example 78, trifluoroacetic acid salt]
2. COc1ccc(S(=O)(=O)N2C(=O)C(c3cc(CN4CCCCC4)ccc3OC)(N3CCC[C@H]3C(=O)N(C)C)c3cc(Cl)ccc32)cc1 (some centres unmarked) [Example 19, trifluoroacetic acid salt]
3. COc1ccc(S(=O)(=O)N2C(=O)C(c3ccc(CN(C)C)cc3OC)(N3CCC[C@H]3C(=O)N(C)C)c3cc(Cl)ccc32)cc1 (some centres unmarked) [Example 70, trifluoroacetic acid salt]
4. COc1ccc(S(=O)(=O)N2C(=O)C(c3ccc(CN4CCC4)cc3OC)(N3CCC[C@H]3C(=O)N(C)C)c3cc(Cl)ccc32)cc1 (some centres unmarked) [Example 87, trifluoroacetic acid salt]
5. COc1ccc(S(=O)(=O)N2C(=O)C(c3cc(CN(C)C)ccc3OC)(N3CCC[C@H]3C(=O)N(C)C)c3cc(Cl)ccc32)c(OC)c1 (some centres unmarked) [Example 24, trifluoroacetic acid salt]
6. COc1ccc(S(=O)(=O)N2C(=O)C(c3ccc(CN4CCN(C)CC4)cc3OC)(N3CCC[C@H]3C(=O)N(C)C)c3ccccc32)cc1 (some centres unmarked) [Example 92, trifluoroacetic acid salt]
7. COc1ccc(S(=O)(=O)N2C(=O)C(c3ccc(CN(C)C)cc3OC)(N3CCC[C@H]3C(=O)N(C)C)c3ccccc32)cc1 (some centres unmarked) [Example 90, trifluoroacetic acid salt]

1: > 9.00; 2: > 9.00; 3: > 9.00; 4: > 9.00; 5: > 9.00; 6: 8.00 to 9.00; 7: 7.00 to 8.00

Working through the 5 molecules below one at a time, give pKi for each.
1. COc1ccc(S(=O)(=O)N2C(=O)C(c3cc(CN4CCOCC4)ccc3OC)(N3CCC[C@H]3C(=O)N(C)C)c3cc(Cl)ccc32)c(OC)c1 (some centres unmarked) [Example 28, trifluoroacetic acid salt]
2. COc1ccc(CN(C)C)cc1C1(N2CCC[C@H]2C(=O)N(C)C)C(=O)N(S(=O)(=O)c2ccc(F)cc2)c2ccc(Cl)cc21 (some centres unmarked) [Example 98, trifluoroacetic acid salt]
3. COc1cc(CN2CCN(C)CC2)ccc1C1(N2CCC[C@H]2C(=O)N(C)C)C(=O)N(S(=O)(=O)c2ccc(C#N)cc2)c2ccc(Cl)cc21 (some centres unmarked) [Example 80, trifluoroacetic acid salt]
4. COc1ccc(CN2CCN(C)CC2)cc1C1(N2CCC[C@H]2C(=O)N(C)C)C(=O)N(S(=O)(=O)c2ccc(C#N)cc2)c2ccc(Cl)cc21 (some centres unmarked) [Example 97, trifluoroacetic acid salt]
5. COc1ccc(S(=O)(=O)N2C(=O)C(c3cc(CN4CCCC4)ccc3OC)(N3CCC[C@H]3C(=O)N(C)C)c3cc(Cl)ccc32)c(OC)c1 (some centres unmarked) [Example 25, trifluoroacetic acid salt]

1: 8.00 to 9.00; 2: 8.00 to 9.00; 3: > 9.00; 4: > 9.00; 5: > 9.00
